Tested on: cos-7 cells
ASSAY_EXPLANATION: DNA transfection: luciferase expression relative to Lipofectamine 2000
Type: cell-based
REPORTED_CONDITIONS: lipid/DNA 25 w/w; 300 ng Luciferase DNA per well; luciferase assay after 48 hours
Mark Y only for Luciferase expression as a percentage of that achieved using Lipofectamine 2000 values smaller than 0.3%; exact matches and larger values are N.

Examples with answers:
{"MOLECULE": "CCCCCCCCCCCCOC(=O)CCN(CCC(=O)OCCCCCCCCCCCC)C(C)CN(C)C (centres unmarked)", "ASSIGNED_LABEL": "Y"}
{"MOLECULE": "CCCCCCCCCCCCCCCOC(=O)CCN(CCC(=O)OCCCCCCCCCCCCCCC)CC1CCCO1 (centres unmarked)", "ASSIGNED_LABEL": "N"}
{"MOLECULE": "CCCCCCCCCCCCCCOC(=O)CCN(CCCn1ccnc1)CCC(=O)OCCCCCCCCCCCCCC", "ASSIGNED_LABEL": "N"}
{"MOLECULE": "CCCCCCCCCCCCCCOC(=O)CCN(CCCOC)CCC(=O)OCCCCCCCCCCCCCC", "ASSIGNED_LABEL": "Y"}
{"MOLECULE": "CCCCCCCCCCCCCCCOC(=O)CCN(CCCN1CCOCC1)CCC(=O)OCCCCCCCCCCCCCCC", "ASSIGNED_LABEL": "Y"}

I wonder whether CCCCCCCCCCCCCCOC(=O)CCN(CCC(=O)OCCCCCCCCCCCCCC)C(CO)CO has Luciferase expression as a percentage of that achieved using Lipofectamine 2000 below 0.3%. Can you tell? N

I wonder whether CCCCCCCCCCCCOC(=O)CCN(CCCN(CC)CC)CCC(=O)OCCCCCCCCCCCC has Luciferase expression as a percentage of that achieved using Lipofectamine 2000 below 0.3%. Can you tell? N

---

Please respond with reported luciferase expression, second set of columns (replicate set of data) for every item in the list.
Tested on: cos-7 cells
ASSAY_EXPLANATION: DNA transfection: luciferase expression relative to Lipofectamine 2000
Format: cell-based
REPORTED_CONDITIONS: replicate set, 3rd column; no head printed (10 w/w by the raw values)
One number for each entry.

Look over these answered cases.
{"SMILES_STR": "CCCCCCCCCCCCCCNC(=O)CCN(C)CCCN(CCC(=O)NCCCCCCCCCCCCCC)CCC(=O)NCCCCCCCCCCCCCC", "MEASURED_NUMBER": 29.2}
{"SMILES_STR": "CCCCCCCCCCCCCCCCNC(=O)CCN(CCO)CCN(CCO)CCC(=O)NCCCCCCCCCCCCCCCC", "MEASURED_NUMBER": 3.8}
{"SMILES_STR": "CCCCCCCCCCCCCCNC(=O)CCN(CCO)CCN(CCC(=O)NCCCCCCCCCCCCCC)CCC(=O)NCCCCCCCCCCCCCC", "MEASURED_NUMBER": 3.9}
{"SMILES_STR": "CCCCCCCCCCCCNC(=O)CCN(CCC(=O)NCCCCCCCCCCCC)CCN(CCC(=O)NCCCCCCCCCCCC)CCN(CCC(=O)NCCCCCCCCCCCC)CCN(CCC(=O)NCCCCCCCCCCCC)CCC(=O)NCCCCCCCCCCCC", "MEASURED_NUMBER": 26.0}
{"SMILES_STR": "CCCCCCCCCCCCCCNC(=O)CCN(C)CCN(CCC(=O)NCCCCCCCCCCCCCC)CCC(=O)NCCCCCCCCCCCCCC", "MEASURED_NUMBER": 4.7}
{"SMILES_STR": "CCCCCCCCCCCCNC(=O)CCN(CCC(=O)NCCCCCCCCCCCC)CCN(CCC(=O)NCCCCCCCCCCCC)CCC(=O)NCCCCCCCCCCCC", "MEASURED_NUMBER": 6.8}
{"SMILES_STR": "CCCCCCCCCCCCNC(=O)CCN(CCCO)CCC(=O)NCCCCCCCCCCCC", "MEASURED_NUMBER": 0.1}
{"SMILES_STR": "CCCCCCCCCCCCCCNC(=O)CCN(CC)CCN(CC)CCC(=O)NCCCCCCCCCCCCCC", "MEASURED_NUMBER": 8.6}
{"SMILES_STR": "CCCCCCCCCCCCCCNC(=O)CCN(CCO)CCN(CCO)CCC(=O)NCCCCCCCCCCCCCC", "MEASURED_NUMBER": 0.6}

Using the record for CCCCCCCCCCCCNC(=O)CCN(CCCN(CCC(=O)NCCCCCCCCCCCC)CCC(=O)NCCCCCCCCCCCC)CCC(=O)NCCCCCCCCCCCC , report its luciferase expression, second set of columns (replicate set of data). 2.5
